system: DU-145 prostate; assay: NCI-60 one-dose screen, 48 h; details: 10 µM unless noted
About 83,000 compounds went through this panel and 20% of them were active in at least one assay; those are over-represented in the sample as a whole. The source made the active and inactive calls. Rule for the calls: active = growth percent below 10; inactive = the rest.
Your answer must be one of the following: active, inactive

Example entries begin here.
Hi team, can someone confirm the assay call for `CN(C)C(=S)N(C)C` ? inactive

Hi team, can someone confirm the assay call for `CCc1ccccc1-n1[nH]c(C)c(C=N)c1=O` ? inactive

Hi team, can someone confirm the assay call for O=P(O)(O)OC1C(OP(=O)(O)O)C(OP(=O)(O)O)C(OP(=O)(O)O)C(OP(=O)(O)O)C1OP(=O)(O)O.[Cu+2] (configuration not stated) ? inactive

Hi team, can someone confirm the assay call for CCN(CC)C(CC(=O)c1ccccc1)C(=O)c1ccccc1 (configuration not stated) ? inactive

Hi team, can someone confirm the assay call for `CCNC1=CC(=O)c2ncccc2C1=O` ? active

Next:
Hi team, can someone confirm the assay call for `Oc1ccc(O)c(-c2ccccc2)c1` ? inactive

Hi team, can someone confirm the assay call for `CCCCCCCCCCCCCCCCC(=O)O` ? inactive

Hi team, can someone confirm the assay call for `CCOc1ccc(/C=C\C(=O)O)cc1` ? inactive

Hi team, can someone confirm the assay call for `CCc1ccc(OC(=O)CCl)cc1` ? inactive

Hi team, can someone confirm the assay call for `CCCC(=O)OCC(COC(=O)CCC)OC(=O)CCC` ? inactive

Hi team, can someone confirm the assay call for C/C(=C\c1ccccc1)C(O)C(=O)c1nc2ccc([N+](=O)[O-])cc2[nH]c1=O (configuration not stated) ? inactive

Hi team, can someone confirm the assay call for `Nc1nc(-c2ccccn2)cc(-c2cc(-c3ccccn3)nc(N)n2)n1` ? inactive

Hi team, can someone confirm the assay call for `OCCCc1ccccc1` ? inactive

Hi team, can someone confirm the assay call for `Cc1cc(-c2ccc(N=Nc3c(C)nn(-c4ccc(S(=O)(=O)O)cc4)c3O)c(C)c2)ccc1N=Nc1ccc(O)c(C(=O)O)c1` ? inactive
